Test system: SARS CoV-2 (USA_WA1/2020)
Format: cell-based
Settings: read-out: IC50, SARS-CoV-2 CPE assay
PROPERTY: IC50 (nM)
Numeric answer only, unit nM assumed.

Ask | Returns the measured IC50 for the input compound. Input: Cc1cccc(C=NNc2cc(N3CCOCC3)nc(N3CCOCC3)n2)c1 [MLS000699212-03]
Reply | 500
